// provenance: patent US7741493B2

Quick reference for pIC50 among some compounds
# TEST_TARGET: P2X7 (Homo sapiens, UniProt Q99572)
# Sequence (Q99572 whole entry): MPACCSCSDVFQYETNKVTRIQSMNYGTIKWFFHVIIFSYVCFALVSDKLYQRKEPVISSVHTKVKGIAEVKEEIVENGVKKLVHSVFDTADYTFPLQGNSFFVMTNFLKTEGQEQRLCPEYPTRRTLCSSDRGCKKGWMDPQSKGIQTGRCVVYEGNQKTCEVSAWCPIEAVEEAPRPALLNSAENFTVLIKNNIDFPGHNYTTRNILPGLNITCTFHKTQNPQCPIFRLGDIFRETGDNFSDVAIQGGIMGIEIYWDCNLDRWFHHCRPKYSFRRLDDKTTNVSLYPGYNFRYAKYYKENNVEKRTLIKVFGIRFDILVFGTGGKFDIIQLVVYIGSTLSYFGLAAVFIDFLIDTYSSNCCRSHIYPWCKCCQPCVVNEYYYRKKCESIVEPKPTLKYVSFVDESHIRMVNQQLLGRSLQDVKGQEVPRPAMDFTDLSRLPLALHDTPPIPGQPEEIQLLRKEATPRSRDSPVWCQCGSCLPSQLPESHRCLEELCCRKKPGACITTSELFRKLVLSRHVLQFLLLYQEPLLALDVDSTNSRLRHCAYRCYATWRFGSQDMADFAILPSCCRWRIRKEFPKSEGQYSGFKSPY
# PROCEDURE_DETAILS: YO-PRO-1 dye uptake assay in U373 cells stably expressing P2X7
# Assay type: cell-based
# Set-up: The complete open reading frame of human P2X7 was amplified from Incyte clone 148057; expressed in transfected cells
# MEASUREMENT_PARAMETERS: dye uptake through P2X7, U373 cells, 300 μM BzATP, 5 μM YO-PRO-1, test compounds 30 nM to 3 μM; read-out: IC50
pIC50: −log10 of the molar value.
PARAMETER: pIC50

C[C@@]1(c2ccc(F)cc2)N=C(NCc2cccc(F)c2)N[C@@H]1c1ccc(F)cc1 : 6.45
Fc1cccc(CCC2=N[C@@H](c3ccccc3)[C@@H](c3ccccc3)N2)c1 [trifluoroacetate] : 7.51
CC(C1=N[C@](C)(c2ccccc2)[C@H](c2ccccc2)N1)c1ccc(Cl)cc1 (relative stereo) [trifluoroacetate] : 6.48
Cc1ccccc1CNC1=N[C@@H](c2ccccc2)[C@@H](c2ccccc2)N1 : 6.61

###

# TEST_TARGET: P2X7 (Homo sapiens, UniProt Q99572)
# PROCEDURE_DETAILS: YO-PRO-1 dye uptake assay in U373 cells stably expressing P2X7
# Format: cell-based
# Design: The complete open reading frame of human P2X7 was amplified from Incyte clone 148057; expressed in transfected cells
# MEASUREMENT_PARAMETERS: IC50 (nM), dye uptake through P2X7, U373 cells, 300 μM BzATP, 5 μM YO-PRO-1, test compounds 30 nM to 3 μM
Quick reference for IC50 among some molecules
PARAMETER: IC50 (nM)

c1ccc(CCC2=N[C@H](c3ccccc3)[C@H](c3ccccc3)N2)cc1 : 77
Cc1ccccc1CC1=N[C@H](c2ccccc2)[C@H](c2ccccc2)N1 : 321
c1ccc(CNCC2=N[C@@H](c3ccccc3)[C@@H](c3ccccc3)N2)cc1 [ditrifluoroacetate] : 318
c1ccc(CCCCC2=N[C@H](c3ccccc3)[C@H](c3ccccc3)N2)cc1 [trifluoroacetate] : 610
Fc1cccc(CC2=N[C@H](c3ccccc3)[C@H](c3ccccc3)N2)c1 : 80

###

# TEST_TARGET: UniProt Q99572
# PROCEDURE_DETAILS: YO-PRO-1 dye uptake assay in U373 cells stably expressing P2X7
# Assay type: cell-based
# Set-up: The complete open reading frame of human P2X7 was amplified from Incyte clone 148057; expressed in transfected cells
# MEASUREMENT_PARAMETERS: dye uptake through P2X7, U373 cells, 300 μM BzATP, 5 μM YO-PRO-1, test compounds 30 nM to 3 μM; read-out: IC50
pIC50: −log10 of the molar value. Counter-ions that a name gives are not always drawn.
I would appreciate it if you labelled entries yes when pIC50 is 7 or higher, otherwise no.

C[C@]1(c2ccccc2)N=C(Cc2ccc(F)c(F)c2)N[C@H]1c1ccccc1 (relative stereo) [trifluoroacetate] : yes
Fc1ccc([C@H]2NC(CCc3ccccc3)=N[C@H]2c2ccc(F)cc2)cc1 : no
C[C@]1(c2ccccc2)N=C(OCC2CCCCC2)N[C@H]1c1ccccc1 (relative stereo) [trifluoroacetate] : no
Fc1ccc(CNC2=N[C@@H](c3cccc(Cl)c3)[C@@H](c3cccc(Cl)c3)N2)cc1F [hydrochloride] : no
Fc1cccc([C@H]2NC(COc3ccccc3F)=N[C@H]2c2cccc(F)c2)c1 : no
C[C@@]1(c2ccccc2)N=C(CCc2ccccc2)N[C@@H]1c1ccccc1 (relative stereo) : yes
c1ccc(CSCC2=N[C@@H](c3ccccc3)[C@@H](c3ccccc3)N2)cc1 [trifluoroacetate] : no
Clc1ccccc1[C@H]1NC(NCc2ccccc2)=N[C@H]1c1ccccc1Cl [hydrochloride] : no
Clc1ccc(CNC2=N[C@@H](c3ccccc3)[C@@H](c3ccccc3)N2)cc1 : no
Brc1cccc(CNC2=N[C@@H](c3ccccc3)[C@@H](c3ccccc3)N2)c1 : no
COc1ccccc1CNC1=N[C@@H](c2ccccc2)[C@@H](c2ccccc2)N1 : no
C[C@@]1(c2ccccc2)N=C(COC2CCOc3ccccc32)N[C@@H]1c1ccccc1 (some centres unmarked) : no
